All values here come from the supplement of paper PMC9112550.

System: Escherichia coli TOP10;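 note: peptides expressed intracellularly from a pBAD plasmid library in pooled LB shake-flask culture, induced with 0.3% L-arabinose, DNA abundance read by NGS, three biological replicates, DESeq2 with apeglm shrinkage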
EXPERIMENT_NOTES: shrunken log2 fold change of peptide-encoding DNA abundance (4.5 h post-induction vs induction); higher = less antimicrobial activity (less host growth inhibition)
MEASUREMENT_CONTEXT: time post-induction: 4.5 h; library: site-saturation at positions 5, 18, 19, 20
ASSAY_ENDPOINT: shrunken log2 fold change
# respond with the number and nothing more

Recorded results for 7 sequences are shown here.
INSERT INTO measurements (sequence_input, value) VALUES
  ('RRIRRRPPRLPRPRPRPENSPRP', 0.118),
  ('RRIRYRPPRLPRPRPRPVKWPRP', 0.0689),
  ('RRIRYRPPRLPRPRPRPQQSPRP', -0.454),
  ('RRIRIRPPRLPRPRPRPQHFPRP', -0.109),
  ('RRIRRRPPRLPRPRPRPKSSPRP', -0.00897),
  ('RRIRVRPPRLPRPRPRPAMAPRP', 0.418),
  ('RRIRSRPPRLPRPRPRPFMHPRP', -0.321);

Next sequence, shrunken log2 fold change to be filled in.
Please look up its shrunken log2 fold change: `RRIRTRPPRLPRPRPRPSPFPRP`
0.133
